The values you see were collected from patent US8030300B2.

# tested_target: α4β2 nAChR subtype (Rattus norvegicus, UniProt P09483+P12390)
# Construct: expressed in transfected cells
# Sequence (P09483 31-630, one chain of several): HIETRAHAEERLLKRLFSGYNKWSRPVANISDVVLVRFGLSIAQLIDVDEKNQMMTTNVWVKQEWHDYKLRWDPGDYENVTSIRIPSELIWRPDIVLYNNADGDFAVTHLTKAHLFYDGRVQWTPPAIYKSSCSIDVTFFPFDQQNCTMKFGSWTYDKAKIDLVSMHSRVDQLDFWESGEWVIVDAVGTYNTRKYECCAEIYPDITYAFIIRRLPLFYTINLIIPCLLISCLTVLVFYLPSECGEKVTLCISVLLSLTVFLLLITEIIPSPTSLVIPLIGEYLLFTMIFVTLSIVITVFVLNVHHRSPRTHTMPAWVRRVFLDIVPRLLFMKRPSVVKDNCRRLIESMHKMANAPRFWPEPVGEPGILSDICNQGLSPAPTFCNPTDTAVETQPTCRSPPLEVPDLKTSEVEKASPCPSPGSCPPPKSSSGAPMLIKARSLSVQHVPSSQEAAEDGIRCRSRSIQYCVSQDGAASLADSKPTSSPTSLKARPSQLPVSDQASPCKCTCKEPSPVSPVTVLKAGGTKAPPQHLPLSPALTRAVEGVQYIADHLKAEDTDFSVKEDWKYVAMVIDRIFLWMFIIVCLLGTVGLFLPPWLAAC
# assay_text: biochemical
# Assay type: binding
# assay_conditions: Table 5; rat nAChR subtypes; read-out: Ki α4β2
Lab note: anything with Ki below 1 nM is marked YES; values at 1 nM or higher are marked NO.

INSERT INTO assay_data (compound, assigned_category) VALUES
  ('CN1CCC[C@H]1COc1cncc(C#CCO)c1', 'YES'),
  ('CCCCC#Cc1cncc(OC[C@@H]2CCCN2C)c1', 'NO'),
  ('Clc1ccc(C2CC3CCC2N3CCCN2C3CCC2C(c2ccc(Cl)nc2)C3)cn1 (centres unmarked) [Ligand 59b, Propane-1,3-N,N′-bisepibatidine]', 'NO'),
  ('CN1CCC[C@H]1COc1cncc(CCCCCCO)c1', 'YES');

Exam item: Decide: Ki of `CN1CCC[C@H]1COc1cncc(C#CC(C)(C)O)c1` strictly below 1 nM?
Marked response: NO

Exam item: Decide: Ki of `CN1CCC[C@H]1COc1cncc(C#CCCCCO)c1` strictly below 1 nM?
Marked response: YES

Exam item: Decide: Ki of `CN1CCC[C@H]1COc1cncc(C#CCCCCCCCCO)c1` strictly below 1 nM?
Marked response: NO

----------
# tested_target: α3β4 nAChR subtype (Rattus norvegicus, UniProt P04757+P12392)
# Construct: expressed in transfected cells
# Sequence (P04757 26-499): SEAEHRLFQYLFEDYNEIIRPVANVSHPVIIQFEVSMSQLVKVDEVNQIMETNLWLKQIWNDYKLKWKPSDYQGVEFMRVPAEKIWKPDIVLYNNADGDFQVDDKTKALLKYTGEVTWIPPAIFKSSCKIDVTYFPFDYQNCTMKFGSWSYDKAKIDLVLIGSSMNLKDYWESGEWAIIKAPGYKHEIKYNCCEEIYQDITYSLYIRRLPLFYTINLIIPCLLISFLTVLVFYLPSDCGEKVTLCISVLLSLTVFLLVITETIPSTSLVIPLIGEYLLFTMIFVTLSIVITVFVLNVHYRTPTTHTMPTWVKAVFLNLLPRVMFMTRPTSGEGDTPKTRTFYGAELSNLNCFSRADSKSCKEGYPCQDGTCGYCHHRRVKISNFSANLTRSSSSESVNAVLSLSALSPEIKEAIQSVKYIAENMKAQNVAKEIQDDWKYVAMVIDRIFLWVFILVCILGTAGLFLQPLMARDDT
# Sequence (P12392 21-495): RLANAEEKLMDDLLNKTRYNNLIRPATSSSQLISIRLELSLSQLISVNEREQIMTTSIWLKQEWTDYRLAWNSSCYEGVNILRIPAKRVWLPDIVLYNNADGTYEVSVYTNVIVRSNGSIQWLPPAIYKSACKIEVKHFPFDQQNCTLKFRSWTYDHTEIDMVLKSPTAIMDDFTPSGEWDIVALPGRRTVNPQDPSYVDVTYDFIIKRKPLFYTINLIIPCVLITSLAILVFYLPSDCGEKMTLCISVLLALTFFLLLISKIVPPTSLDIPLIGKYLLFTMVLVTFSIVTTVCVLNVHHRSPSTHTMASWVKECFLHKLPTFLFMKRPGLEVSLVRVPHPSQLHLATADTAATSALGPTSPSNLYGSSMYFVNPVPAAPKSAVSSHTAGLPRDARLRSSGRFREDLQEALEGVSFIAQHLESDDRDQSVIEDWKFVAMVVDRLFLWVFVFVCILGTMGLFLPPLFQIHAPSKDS
# assay_text: biochemical
# Type: binding
# assay_conditions: read-out: Ki α3β4
attribute_measured: Ki (µM)
Please state the figure in µM; there is no need to write the unit.

Consider the following illustrative entries.
INSERT INTO results (compound, result_number) VALUES
  ('OC1CC2CC(c3ccc(Cl)nc3)C1N2 (racemic) [Ligand 9]', 0.0273),
  ('C#Cc1cncc([C@@H]2CCCN2C)c1 [SIB-1508Y, reference compound]', 4.43);

Now, please, on to the next compound.
Exam item: Give α3β4 nAChR subtype (Rattus norvegicus, UniProt P04757+P12392) Ki for O=C1CC2CC(c3ccc(Cl)nc3)C1N2 (racemic) [Ligand 5]
Marked response: 8.87

----------
# tested_target: α2β4 nAChR subtype (Rattus norvegicus, UniProt P12389+P12392)
# Construct: expressed in transfected cells
# Sequence (P12389 28-511): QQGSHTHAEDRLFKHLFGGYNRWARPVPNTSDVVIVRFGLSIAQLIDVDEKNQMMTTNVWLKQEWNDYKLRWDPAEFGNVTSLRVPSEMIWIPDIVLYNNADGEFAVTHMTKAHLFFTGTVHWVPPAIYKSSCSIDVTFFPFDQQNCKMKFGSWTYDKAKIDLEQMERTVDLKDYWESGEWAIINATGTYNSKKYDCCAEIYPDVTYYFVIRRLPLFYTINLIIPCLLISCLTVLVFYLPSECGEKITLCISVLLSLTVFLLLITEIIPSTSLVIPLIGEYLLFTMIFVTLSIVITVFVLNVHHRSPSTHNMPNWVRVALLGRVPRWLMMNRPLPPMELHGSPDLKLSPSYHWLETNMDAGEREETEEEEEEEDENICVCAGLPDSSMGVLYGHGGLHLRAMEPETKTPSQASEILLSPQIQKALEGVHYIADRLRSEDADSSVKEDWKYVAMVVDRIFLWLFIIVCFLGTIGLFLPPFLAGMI
# Sequence (P12392 21-495): as the sequence (P12392 21-495) above
# assay_text: biochemical
# Format: binding
# assay_conditions: Table 3; mean of 3 independent measurements; read-out: Ki α2β4
attribute_measured: Ki (nM)
Please state the figure in nM; there is no need to write the unit.

INSERT INTO measurements (smiles_input, attribute_measured, result_number) VALUES
  ('FCCCCC#Cc1cncc(OC[C@@H]2CCCN2)c1', 'Ki', 680);

Now, please, on to the next molecule.
Exam item: What value of measured Ki is listed for `OCCCCC#Cc1cncc(OC[C@@H]2CCCN2)c1` ?
Marked response: 835

----------
# tested_target: α2β4 nAChR subtype (Rattus norvegicus, UniProt P12389+P12392)
# Construct: expressed in transfected cells
# assay_text: biochemical
# Format: binding
# assay_conditions: Ki α2β4, Table 5; rat nAChR subtypes
# Description: In order to assess the steric and hydropathic effects of the C-5 substituents of the pyridine on the binding affinity and subtype-selectivity at neuronal nicotinic acetylcholine receptors. […] The binding affinity ratios for a ligand, calculated from its affinities at an α subunit paired with either the β2 osubunit or the β4 subunit, represents a measure of the selectivity of that ligand with regard to the β subunits.
attribute_measured: pKi
# pKi is unitless: minus log10 of the molar concentration; print number only

Consider the following illustrative entries.
INSERT INTO results (compound, result_number) VALUES
  ('CCCCCC#Cc1ccc(C2CC3CCC2N3)cn1 (centres unmarked) [Ligand 34]', 7.17),
  ('OC1CC2NC1CC2c1ccc(Cl)nc1 (centres unmarked) [Ligand 7]', 6.62),
  ('FCCCCC#Cc1cncc(OC[C@@H]2CCCN2)c1 [Ligand 42]', 6.17),
  ('Clc1ccc2c(n1)CCC21CC2CCC1N2 (centres unmarked) [Ligand 58b]', 5.15),
  ('OCCCCC#Cc1cncc(OC[C@@H]2CCCN2)c1 [Ligand 27]', 6.08),
  ('FC1CC2NC1CC2c1ccc(Cl)nc1 (centres unmarked) [Ligand 10]', 8.25),
  ('c1cncc(OC[C@@H]2CCN2)c1 [Ligand A-85380, reference compound]', 7.74),
  ('Clc1ccc(C2CC3CCC2N3CCN2C3CCC2CC3)cn1 (centres unmarked) [ZW-84]', 7.78),
  ('FCCCCC#Cc1cncc(OC[C@@H]2CCN2)c1 [Ligand 41]', 6.71),
  ('CN1CCC[C@H]1COc1cccnc1 [Ligand 8, reference compound]', 6.68);

Exam item: What value of measured pKi is listed for O[C@H]1C[C@H]2C[C@H](c3ccc(Cl)nc3)[C@@H]1N2 (relative stereo) [Ligand 9] ?
Marked response: 8.23

Exam item: What value of measured pKi is listed for OC1C2CCC(N2)C1c1ccc(Cl)nc1 (single isomer, unassigned) [Ligand 2] ?
Marked response: 6.21

Exam item: What value of measured pKi is listed for Clc1ccc(C2CC3CC4(OCCO4)C2N3)cn1 (centres unmarked) [ZW-82] ?
Marked response: 7.03

Exam item: What value of measured pKi is listed for O[C@H]1C[C@H]2N[C@@H]1C[C@@H]2c1ccc(Cl)nc1 (relative stereo) [Ligand 6] ?
Marked response: 7.17

----------
Measured Ki accompanies every entry in the list below.
# tested_target: α2β2 nAChR subtype (Rattus norvegicus, UniProt P12389+P12390)
# Construct: expressed in transfected cells
# Sequence (P12390 25-500): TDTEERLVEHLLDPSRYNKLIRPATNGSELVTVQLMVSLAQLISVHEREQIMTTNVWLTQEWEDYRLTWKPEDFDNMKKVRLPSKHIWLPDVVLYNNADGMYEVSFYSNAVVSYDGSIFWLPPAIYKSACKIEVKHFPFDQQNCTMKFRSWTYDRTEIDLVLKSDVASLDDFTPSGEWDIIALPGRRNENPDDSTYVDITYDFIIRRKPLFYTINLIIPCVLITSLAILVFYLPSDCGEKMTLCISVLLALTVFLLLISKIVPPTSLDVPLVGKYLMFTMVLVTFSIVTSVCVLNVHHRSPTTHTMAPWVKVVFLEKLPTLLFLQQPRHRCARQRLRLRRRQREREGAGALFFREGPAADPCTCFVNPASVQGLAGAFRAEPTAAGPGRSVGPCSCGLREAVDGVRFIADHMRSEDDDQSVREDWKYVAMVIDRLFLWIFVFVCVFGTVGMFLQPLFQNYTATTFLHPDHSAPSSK
# Sequence (P12389 28-511): as the sequence (P12389 28-511) above
# assay_text: biochemical
# Format: binding
# assay_conditions: Ki α2β2, Table 5; rat nAChR subtypes
// return the numeric value with its unit appended

INSERT INTO assay_data (compound, tested_target, result) VALUES
  ('Clc1ccc2c(n1)CCC21CC2CCC1N2 (stereo not shown) [Ligand 58b]', 'α2β2 nAChR subtype (Rattus norvegicus, UniProt P12389+P12390)', '2460 nM'),
  ('FCCCCC#Cc1cncc(OC[C@@H]2CCN2)c1 [Ligand 41]', 'α2β2 nAChR subtype (Rattus norvegicus, UniProt P12389+P12390)', '0.796 nM'),
  ('Clc1ccc(C2CC3CC4(OCCO4)C2N3)cn1 (stereo not shown) [ZW-82]', 'α2β2 nAChR subtype (Rattus norvegicus, UniProt P12389+P12390)', '30 nM');

Now, please, on to the next compound.
Exam item: What value of measured Ki is listed for Clc1cc2c(cn1)C1(CC2)CC2CCC1N2 (stereo not shown) [Ligand 58a] ?
Marked response: 12800 nM

----------
# tested_target: α4β2 nAChR subtype (Rattus norvegicus, UniProt P09483+P12390)
# Construct: expressed in transfected cells
# assay_text: biochemical
# Assay type: binding
# assay_conditions: Ki α4β2, Table 5; rat nAChR subtypes
attribute_measured: Ki

INSERT INTO measurements (compound, tested_target, result) VALUES
  ('FCCCCC#Cc1cncc(OC[C@@H]2CCN2)c1 [Ligand 41]', 'α4β2 nAChR subtype (Rattus norvegicus, UniProt P09483+P12390)', '0.201 nM'),
  ('CCCCCc1cncc(C2CC3CCC2N3)c1 (stereo not drawn) [ZW-95]', 'α4β2 nAChR subtype (Rattus norvegicus, UniProt P09483+P12390)', '0.151 nM'),
  ('O[C@H]1C[C@H]2C[C@H](c3ccc(Cl)nc3)[C@@H]1N2 (relative stereo) [Ligand 9]', 'α4β2 nAChR subtype (Rattus norvegicus, UniProt P09483+P12390)', '0.916 nM'),
  ('OC1C2CCC(N2)C1c1ccc(Cl)nc1 (single isomer, unassigned) [Ligand 3]', 'α4β2 nAChR subtype (Rattus norvegicus, UniProt P09483+P12390)', '2.92 nM'),
  ('O=C1CC2NC1CC2c1ccc(Cl)nc1 (stereo not drawn) [Ligand 4]', 'α4β2 nAChR subtype (Rattus norvegicus, UniProt P09483+P12390)', '7080 nM');

Now, please, on to the next compound.
Exam item: Give α4β2 nAChR subtype (Rattus norvegicus, UniProt P09483+P12390) Ki for OC1CC2CC(c3ccc(Cl)nc3)C1N2 (stereo not drawn) [Ligand 8]
Marked response: 12.6 nM

----------
# tested_target: receptors in rat forebrain (mainly α4β2) (Rattus norvegicus, UniProt P09483+P12390)
# Construct: from tissue; host or cells: rat forebrain homogenate
# Sequence (P09483 31-630, one chain of several): as the sequence (P09483 31-630, one chain of several) above
# assay_text: biochemical
# Assay type: binding
# assay_conditions: Ki α4β2*, Table 5; *Rat forebrain, mainly α4β2
Measured Ki accompanies every entry in the list below.
Please state the figure in nM; there is no need to write the unit.

Consider the following illustrative entries.
INSERT INTO results (compound, tested_target, result_number) VALUES
  ('Clc1ccc(C2CC3CC4(OCCO4)C2N3)cn1 (stereo not drawn)', 'receptors in rat forebrain (mainly α4β2) (Rattus norvegicus, UniProt P09483+P12390)', 304),
  ('O[C@H]1C[C@H]2C[C@H](c3ccc(Cl)nc3)[C@@H]1N2 (relative stereo)', 'receptors in rat forebrain (mainly α4β2) (Rattus norvegicus, UniProt P09483+P12390)', 4.11),
  ('Clc1ccc2c(n1)CCC1C3CCC(N3)C21 (stereo not drawn) [Ligand 37b]', 'receptors in rat forebrain (mainly α4β2) (Rattus norvegicus, UniProt P09483+P12390)', 576),
  ('OC1C2CCC(N2)C1c1ccc(Cl)nc1 (single isomer, unassigned) [Ligand 2]', 'receptors in rat forebrain (mainly α4β2) (Rattus norvegicus, UniProt P09483+P12390)', 2060),
  ('Clc1ccc(C2CC3CCC2N3CCN2C3CCC2CC3)cn1 (stereo not drawn)', 'receptors in rat forebrain (mainly α4β2) (Rattus norvegicus, UniProt P09483+P12390)', 112);

Now, please, on to the next compound.
Exam item: What value of measured Ki is listed for CCCCCC#Cc1ccc(C2CC3CCC2N3)cn1 (stereo not drawn) ?
Marked response: 52
